Test system: Staphylococcus aureus
assayDetails: Antibacterial activity against methicillin-resistant Staphylococcus aureus after 18 to 20 hrs by CLSI-protocol based broth microdilution method
Assay type: functional
Active and inactive are the calls of the source. The rule behind the calls is not given here.
quantity: MIC

[
  {
    "molecule": "C[C@@H]1CN2c3c(cc4c(N5C(=O)OC[C@@H]5C)noc4c3F)CC3(C(=O)N(C)C(=O)N(C)C3=O)[C@H]2[C@H](C)O1",
    "MIC": "inactive"
  },
  {
    "molecule": "C[C@@H]1CN2c3c(cc4c(N5CCSC5=O)noc4c3F)CC3(C(=O)NC(=O)NC3=O)[C@H]2[C@H](C)O1",
    "MIC": "< 0.03 µg/mL"
  },
  {
    "molecule": "C[C@@H]1CN2c3c(cc4c(N5C[C@H](CN=[N+]=[N-])SC5=O)noc4c3F)CC3(C(=O)NC(=O)NC3=O)[C@H]2[C@H](C)O1",
    "MIC": "0.25 to 0.5 µg/mL"
  },
  {
    "molecule": "CC(=O)NC[C@H]1CN(c2noc3c(F)c4c(cc23)CC2(C(=O)NC(=O)NC2=O)[C@H]2[C@H](C)O[C@H](C)CN42)C(=O)S1",
    "MIC": "16 to 64 µg/mL"
  }
]

List the reported MIC of each molecule below.
1. C[C@@H]1CN(c2noc3c(C#N)c4c(cc23)CC2(C(=O)NC(=O)NC2=O)[C@H]2[C@H](C)O[C@H](C)CN42)C(=O)O1
2. CC[C@H]1CSC(=O)N1c1noc2c(F)c3c(cc12)CC1(C(=O)NC(=O)NC1=O)[C@H]1[C@H](C)O[C@H](C)CN31
3. C[C@@H]1CN2c3c(cc4c(N5CC6(CCC6)OC5=O)noc4c3F)CC3(C(=O)NC(=O)NC3=O)[C@H]2[C@H](C)O1
4. C[C@@H]1CN2c3c(cc4c(N5C(=O)SC[C@@H]5C)noc4c3F)CC3(C(=O)NC(=O)NC3=O)[C@H]2[C@H](C)O1
5. C[C@@H]1CN2c3c(cc4c(N5CCOCC5=O)ncnc4c3F)CC3(C(=O)NC(=O)NC3=O)[C@H]2[C@H](C)O1 (racemic)
6. C[C@H]1COc2c(N3CCN(C)CC3)c(F)cc3c(=O)c(C(=O)O)cn1c23.C[C@H]1COc2c(N3CCN(C)CC3)c(F)cc3c(=O)c(C(=O)O)cn1c23.O [LEVOFLOXACIN]

Response line:
1: 0.25 to 8 µg/mL; 2: 0.5 to 1 µg/mL; 3: 0.06 to 1 µg/mL; 4: 0.03 to 0.125 µg/mL; 5: inactive; 6: 16 to 64 µg/mL

List the reported MIC of each molecule below.
1. COC[C@H]1CN(c2noc3c(F)c4c(cc23)CC2(C(=O)NC(=O)NC2=O)[C@H]2[C@H](C)O[C@H](C)CN42)C(=O)S1
2. C[C@@H]1CN2c3c(cc4c(N5CCCOC5=O)noc4c3F)CC3(C(=O)NC(=O)NC3=O)[C@H]2[C@H](C)O1 (racemic)
3. C[C@@H]1CN2c3c(cc4c(N5C(=O)OCC56CC6)noc4c3F)CC3(C(=O)NC(=O)NC3=O)[C@H]2[C@H](C)O1 (racemic)
4. C[C@@H]1CN2c3c(cc4c(N5CCSCC5)ncnc4c3F)CC3(C(=O)NC(=O)NC3=O)[C@H]2[C@H](C)O1 (racemic)

Response line:
["0.03 to 0.5 µg/mL", "1 to 64 µg/mL", "1 to 4 µg/mL", "inactive"]

Data provenance is ChEMBL document CHEMBL4316588.
